Where these numbers come from: PubChem BioAssay AID449762

Assign inhibition to each entry below.
experiment: M. tuberculosis growth inhibition, HTS (AID 449762);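 note: bacterial growth assessed after seven days of incubation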; conditions: M. tuberculosis H37Rv growth inhibition, 7H9 media; at 25 µM; stronger effect = higher value
Among all 330,000 compounds or so, about 1,900 (0.58%) were called active. About 4% were inconclusive and are not listed. These entries were drawn from the full list. Results with a measured potency or affinity are listed apart.
Give bare numbers, in %.

Answered examples (5):
If you can, please state the reported inhibition value of O=C(Nc1ccc(-c2csc(Nc3ccccc3)n2)cc1)c1cccc(C(F)(F)F)c1 .
1.22

If you can, please state the reported inhibition value of CC1(C)N=C(N)N=C(N)N1c1cccc(CN)c1 .
-3.4

If you can, please state the reported inhibition value of COc1ccc(Cl)cc1N(CC(=O)NC(C)(C)C)S(=O)(=O)c1ccc(C)c([N+](=O)[O-])c1 .
-3.67

If you can, please state the reported inhibition value of C[C@@H]1CCCCCCCCC(=O)OCCN(C(=O)OC(C)(C)C)[C@H](C)CCCCCCCCC(=O)OCCN(C(=O)OC(C)(C)C)[C@H](C)CCCCCCCCC(=O)OCCN(C(=O)OC(C)(C)C)[C@H](C)CCCCCCCCC(=O)OCCN1C(=O)OC(C)(C)C .
-0.93

If you can, please state the reported inhibition value of O=C(Nc1ccccc1C1CC1)c1cccs1 .
-3.36

Hi there! I need inhibition for each item below, if you can.
1. O=C1CCN(CCc2ccccc2)CCN1[C@H](CSc1ccccc1)Cc1ccccc1
2. O=C(Nc1ccc(-c2csc(Nc3cccc(C(F)(F)F)c3)n2)cc1)c1ccccc1

13.6
50.9

Hi there! I need inhibition for each item below, if you can.
1. CCCN1CCC(=O)N([C@H](CSc2ccc(OC)cc2)Cc2ccccc2)CC1
2. O=c1[nH][nH]c(-c2ccccc2O)c1C(C[N+](=O)[O-])c1ccccc1 (centres undefined)

1: 0.11; 2: 25.6

* * *

assay: M. tuberculosis growth inhibition, HTS (AID 449762);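 note: bacterial growth assessed after seven days of incubation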; settings: M. tuberculosis H37Rv growth inhibition, 7H9 media; at 25 µM; stronger effect = higher value
About 1,900 (0.58%) of roughly 330,000 compounds were called active. Another 4% or so got no clear call; they are omitted. These entries were drawn from the full list. Entries with a potency or affinity are not part of this list.
Assign inhibition to each entry below.
One number for each entry, in %.

Answered examples (6):
If you can, please state the reported inhibition value of CCC1C(c2ccccc2)NC(c2ccccc2)CC1(O)c1ccc(F)cc1 (stereo not drawn) .
29.1

If you can, please state the reported inhibition value of C[C@H](CO)N1C[C@H](C)[C@@H](CN(C)C)Oc2c(NS(=O)(=O)c3ccccc3)cccc2C1=O .
0.58

If you can, please state the reported inhibition value of C(=N\Nc1nc(-c2ccccc2)cs1)/c1cccs1 .
28.8

If you can, please state the reported inhibition value of OC(COC(c1ccc(F)cc1)c1ccc(F)cc1)CN1CCc2ccccc2C1 (stereo not drawn) .
28.2

If you can, please state the reported inhibition value of Cc1ccc2c(c1)N(CC(=O)OC(CC(C)C)C(=O)NC1CCCC1)C(=O)CO2 (stereo not drawn) .
0.6

If you can, please state the reported inhibition value of Cc1cccc(-n2cc(CNCCN3CCOC3=O)c(-c3cccc(F)c3)n2)c1 .
1.99

Hi there! I need inhibition for each item below, if you can.
1. CCN(CC)C(=O)CSc1nnc(-c2ccc(S(=O)(=O)NCc3ccccc3Cl)cc2)o1
2. O=C(CCCn1c(=O)[nH]c2cc(Cl)ccc2c1=O)NCCCN1CCCC1=O
3. CC1(OC(=O)c2cccs2)C(=O)C=C2C=C(c3ccsc3)OC=C2C1=O (stereo not drawn)
4. CC(=O)Nc1ccc(-c2csc(N/N=C\c3ccncc3)n2)cc1
5. NC(=O)C1CCN(C(=O)COc2ccc3ccc(=O)oc3c2)CC1

5.34
1.6
-0.64
6.44
-9.39

Hi there! I need inhibition for each item below, if you can.
1. CN1c2ccccc2N(C)C1(C)c1ccccc1
2. Cc1cccc(N(C)S(=O)(=O)c2c(C)noc2C)c1

4.29
2.4

Hi there! I need inhibition for each item below, if you can.
1. O=C(CSc1n[nH]c(=O)[nH]c1=O)c1ccccc1
2. Cc1ccc(C(=O)CSc2nnc(-c3c[nH]c4ccccc34)o2)cc1
3. CCCCc1nc2cc(C(=O)NCc3nccn3CC)ccc2o1
4. N#Cc1ccc(-c2ccc3c(c2)OCO3)nc1SCC(=O)OCc1ccccc1

[51.6, 0.92, -0.01, -7.31]

If you can, please state the reported inhibition value of CCCCCc1ccc(CC(=O)O)cc1 .
-9.58
